- Tgt: Relaxin receptor 1 (Homo sapiens) (UniProt Q9HBX9)
- Sequence (Q9HBX9 whole entry, looked up): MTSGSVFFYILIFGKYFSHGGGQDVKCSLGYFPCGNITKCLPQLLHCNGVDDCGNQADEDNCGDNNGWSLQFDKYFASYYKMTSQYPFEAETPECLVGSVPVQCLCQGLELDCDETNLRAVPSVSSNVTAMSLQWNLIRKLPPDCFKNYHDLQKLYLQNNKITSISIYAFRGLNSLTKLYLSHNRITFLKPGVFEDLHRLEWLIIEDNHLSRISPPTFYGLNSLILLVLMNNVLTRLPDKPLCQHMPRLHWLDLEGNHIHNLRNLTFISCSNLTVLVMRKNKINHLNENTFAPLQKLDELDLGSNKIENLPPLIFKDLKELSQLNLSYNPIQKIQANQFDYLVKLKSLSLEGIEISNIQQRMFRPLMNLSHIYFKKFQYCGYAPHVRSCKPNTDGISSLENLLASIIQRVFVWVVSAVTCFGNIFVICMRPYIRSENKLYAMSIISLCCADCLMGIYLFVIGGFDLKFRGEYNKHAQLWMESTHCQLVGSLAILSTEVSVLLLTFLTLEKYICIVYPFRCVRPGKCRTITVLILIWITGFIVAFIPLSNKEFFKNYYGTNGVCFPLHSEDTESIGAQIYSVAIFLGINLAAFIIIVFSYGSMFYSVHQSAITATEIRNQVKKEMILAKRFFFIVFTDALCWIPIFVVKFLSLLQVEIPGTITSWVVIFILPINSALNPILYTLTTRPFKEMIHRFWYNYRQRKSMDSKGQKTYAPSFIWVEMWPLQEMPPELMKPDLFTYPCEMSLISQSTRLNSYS
- Method Notes: qHTS Assay for Agonists of the Relaxin Receptor RXFP1: THP1 Hit Validation; note: nearly all actives have a fitted effect of over 60% in size
- Applied Conditions: THP1-RXFP1 cells, cAMP TR-FRET, 30 min; series mostly up to 115 µM
- Method: The relaxin hormone is involved in the variety of biological functions in normal tissues and diseases. […] Upon relaxin binding RXFP1 activation leads to the activation of adenylate cyclase (AC) via Gs. cAMP will activate PKA, which phosphorylates many signaling proteins. […] RXFP1 activation was assayed by changes in cAMP levels as detected with a time-resolved fluorescence energy transfer (TR-FRET) cAMP detection kit. […]
Results filed as inconclusive are left out. Active and inactive are the calls of the source. Calls come from the whole dose curve; as a rule, active = well fitted activation curve with a large enough effect; inconclusive = small, poorly fitted or top-dose-only effect; inactive = no such curve, though single readings can be large or run the other way.
Classes used: TRUE for active, FALSE for inactive

[
  {
    "Molecule": "CN(C)c1ccc2nc3c(=O)[nH]c(=O)nc-3n(CC(O)C(O)C(O)CO)c2c1 (configuration not stated)",
    "Tgt": "Relaxin receptor 1 (Homo sapiens) (UniProt Q9HBX9)",
    "Group": "FALSE"
  },
  {
    "Molecule": "O=C(Nc1cc(S(=O)(=O)N2CCOCC2)ccc1N1CCOCC1)c1cn2ccccc2n1",
    "Tgt": "Relaxin receptor 1 (Homo sapiens) (UniProt Q9HBX9)",
    "Group": "TRUE"
  },
  {
    "Molecule": "CCS(=O)(=O)Nc1cccc(-c2ccc3nnc(-c4cccnc4)n3n2)c1",
    "Tgt": "Relaxin receptor 1 (Homo sapiens) (UniProt Q9HBX9)",
    "Group": "TRUE"
  },
  {
    "Molecule": "O=C(O)CCSc1ccc2ccccc2n1",
    "Tgt": "Relaxin receptor 1 (Homo sapiens) (UniProt Q9HBX9)",
    "Group": "TRUE"
  },
  {
    "Molecule": "O=C(Nc1ccccc1C(=O)NCCN1CCOCC1)c1ccco1",
    "Tgt": "Relaxin receptor 1 (Homo sapiens) (UniProt Q9HBX9)",
    "Group": "FALSE"
  },
  {
    "Molecule": "CCn1c(=O)c2cc(C(=O)Nc3cccc(C(C)=O)c3)sc2c2ccccc21",
    "Tgt": "Relaxin receptor 1 (Homo sapiens) (UniProt Q9HBX9)",
    "Group": "FALSE"
  },
  {
    "Molecule": "Cc1ccccc1NC(=O)c1ccccc1NC(=O)c1ccco1",
    "Tgt": "Relaxin receptor 1 (Homo sapiens) (UniProt Q9HBX9)",
    "Group": "FALSE"
  },
  {
    "Molecule": "CC(C)n1cnc2c(N(C)c3cccc(Cl)c3)nc(N(CCO)CCO)nc21",
    "Tgt": "Relaxin receptor 1 (Homo sapiens) (UniProt Q9HBX9)",
    "Group": "FALSE"
  },
  {
    "Molecule": "Cc1ccc(-n2nnc3c(=O)n(CC(=O)NCC4CCCO4)cnc32)cc1 (configuration not stated)",
    "Tgt": "Relaxin receptor 1 (Homo sapiens) (UniProt Q9HBX9)",
    "Group": "TRUE"
  },
  {
    "Molecule": "O=C(Nc1ccccc1C(=O)Nc1ccccc1)c1ccco1",
    "Tgt": "Relaxin receptor 1 (Homo sapiens) (UniProt Q9HBX9)",
    "Group": "FALSE"
  },
  {
    "Molecule": "O=C(O)c1cc(-c2ccc(Br)s2)nc2ccccc12",
    "Tgt": "Relaxin receptor 1 (Homo sapiens) (UniProt Q9HBX9)",
    "Group": "TRUE"
  },
  {
    "Molecule": "O=C(Nc1ccccc1C(=O)NCCc1ccccc1)c1ccco1",
    "Tgt": "Relaxin receptor 1 (Homo sapiens) (UniProt Q9HBX9)",
    "Group": "FALSE"
  }
]

Each recorded value in this set is attributed to PubChem BioAssay AID492949.
